# Test system: HL-60(TB) leukemia
# method-summary: NCI tumour cell line growth inhibition, 48 h; in the data active = GI50 below about 0.43 µM; inactive = the rest
# valid calls are active, inactive; nothing else

[
  {
    "compound": "COc1ccccc1CNCCCN1C(=O)c2ccc3c4c(ccc(c24)C1=O)C(=O)N(CCCNCCCCNCCCCN)C3=O",
    "assigned-class": "inactive"
  },
  {
    "compound": "O=C(c1ccccc1)c1ccc(Cl)c([N+](=O)[O-])c1",
    "assigned-class": "inactive"
  },
  {
    "compound": "CC(C)c1ccc2c(N=Nc3ccc(S(N)(=O)=O)cc3)c(O)[nH]c2c1",
    "assigned-class": "inactive"
  },
  {
    "compound": "CCOC(=O)c1c[nH]c2c(OCc3ccccc3)c3ccccc3c(O)c2c1=O",
    "assigned-class": "inactive"
  },
  {
    "compound": "CC1(C)Cc2cccc(OCC(O)CN3CCN(c4ccc(F)cc4)CC3)c2O1 (stereo not given)",
    "assigned-class": "inactive"
  }
]

Note: attention shifts to another entry.
State the result this test recorded for COC1OCC(OS(=O)(=O)c2ccc(C)cc2)C(OC(=O)c2ccccc2)C1OC(=O)c1ccccc1 (stereo not given) .
inactive
